assayTarget: Poly [ADP-ribose] polymerase tankyrase-2 (Homo sapiens)
Sequence (Q9H2K2 whole entry): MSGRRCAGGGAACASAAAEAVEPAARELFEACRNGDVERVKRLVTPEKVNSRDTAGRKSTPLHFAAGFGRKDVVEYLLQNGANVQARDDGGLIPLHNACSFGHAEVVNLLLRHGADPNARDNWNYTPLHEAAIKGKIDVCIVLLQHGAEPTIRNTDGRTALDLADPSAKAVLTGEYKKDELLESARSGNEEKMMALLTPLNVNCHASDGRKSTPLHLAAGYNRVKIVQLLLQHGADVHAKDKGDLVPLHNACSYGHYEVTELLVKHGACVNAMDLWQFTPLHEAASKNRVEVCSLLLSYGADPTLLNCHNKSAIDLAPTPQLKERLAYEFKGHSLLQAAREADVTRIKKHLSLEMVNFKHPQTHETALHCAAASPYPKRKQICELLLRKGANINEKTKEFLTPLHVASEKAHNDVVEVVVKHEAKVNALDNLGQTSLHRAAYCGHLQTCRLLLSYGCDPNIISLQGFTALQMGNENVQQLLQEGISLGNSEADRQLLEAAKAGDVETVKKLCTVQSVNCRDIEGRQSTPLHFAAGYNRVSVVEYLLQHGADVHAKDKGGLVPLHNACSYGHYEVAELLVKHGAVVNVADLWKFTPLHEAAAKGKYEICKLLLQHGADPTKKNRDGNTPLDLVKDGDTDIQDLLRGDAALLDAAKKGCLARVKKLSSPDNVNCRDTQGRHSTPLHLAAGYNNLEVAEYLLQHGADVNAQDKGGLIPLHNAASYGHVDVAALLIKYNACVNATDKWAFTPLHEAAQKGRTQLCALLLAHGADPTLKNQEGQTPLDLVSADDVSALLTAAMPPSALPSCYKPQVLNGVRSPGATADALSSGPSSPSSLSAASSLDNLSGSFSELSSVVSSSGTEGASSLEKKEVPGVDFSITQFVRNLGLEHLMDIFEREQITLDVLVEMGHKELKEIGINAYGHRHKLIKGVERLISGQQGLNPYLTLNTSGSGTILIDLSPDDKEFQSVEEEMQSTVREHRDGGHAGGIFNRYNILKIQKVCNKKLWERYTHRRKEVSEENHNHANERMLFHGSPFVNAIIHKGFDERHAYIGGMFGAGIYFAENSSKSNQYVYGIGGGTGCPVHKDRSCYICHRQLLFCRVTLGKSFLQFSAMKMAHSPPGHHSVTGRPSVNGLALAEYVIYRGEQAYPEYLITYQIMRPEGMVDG
protocolDescription: Activity of N-terminus hexaHis-tagged human TNSK2 expressed in Escherichia coli BL21 (DE3) cells using biotinylated NAD+ as substrate after 90 mins by Western blot analysis
This listing pairs compounds with measured EC50.
metric: EC50 (µM)

• O=C(NCc1ccccc1)c1ccc(N2C(=O)[C@@H]3[C@H](C2=O)[C@@H]2C=C[C@H]3C2)cc1 = 20
• CO[C@H]1CCCC[C@@H]1NC(=O)c1ccc(N2C(=O)[C@@H]3[C@H](C2=O)[C@@H]2C=C[C@H]3C2)cc1 = 2
• O=C(NCc1ccncc1)c1ccc(N2C(=O)[C@@H]3[C@H](C2=O)[C@@H]2C=C[C@H]3C2)cc1 = 10
• O=C(Nc1ccc(Br)cc1)c1ccc(N2C(=O)[C@@H]3[C@H](C2=O)[C@@H]2C=C[C@H]3C2)cc1 = 1
